# PROTOCOL CONDITIONS: 313.15 K; 100 kPa; Liquid; Vibrating tube method
READOUT LABEL: mass density (kg/m3)

- MOLECULE: "C[N+](C)(C)CCO.O=S(=O)([N-]S(=O)(=O)C(F)(F)F)C(F)(F)F [choline bis(trifluoromethylsulfonyl)imide]"
  mass density, kg/m3: 1513.41
- MOLECULE: "CC1COC(=O)O1 (centres undefined)"
  mass density, kg/m3: 1183.67
- MOLECULE: "CCn1cc[n+](C)c1.CS(=O)(=O)[O-] [1-ethyl-3-methylimidazolium methanesulfonate]"
  mass density, kg/m3: 1231.94
- MOLECULE: "CCn1cc[n+](C)c1.N#C[B-](C#N)(C#N)C#N [1-ethyl-3-methylimidazolium tetracyanoborate]"
  mass density, kg/m3: 1024.52

###

# PROTOCOL CONDITIONS: 283.15 K; 100 kPa; Liquid; Vibrating tube method
READOUT LABEL: mass density (kg/m3)

- COMPOUND: "CCn1cc[n+](C)c1.CS(=O)(=O)[O-] [1-ethyl-3-methylimidazolium methanesulfonate]"
  RECORDED VALUE: 1252.62
- COMPOUND: "CCn1cc[n+](C)c1.N#C[B-](C#N)(C#N)C#N [1-ethyl-3-methylimidazolium tetracyanoborate]"
  RECORDED VALUE: 1048.19
- COMPOUND: "CCn1cc[n+](C)c1.O=S(=O)([O-])C(F)(F)F [1-ethyl-3-methylimidazolium trifluoromethanesulfonate]"
  RECORDED VALUE: 1398.75
- COMPOUND: "CC1COC(=O)O1 (centres undefined)"
  RECORDED VALUE: 1215.55

###

# PROTOCOL CONDITIONS: 333.15 K; 100 kPa; Liquid; Vibrating tube method
READOUT LABEL: mass density (kg/m3)

- COMPOUND: "CCn1cc[n+](C)c1.O=S(=O)([O-])C(F)(F)F [1-ethyl-3-methylimidazolium trifluoromethanesulfonate]"
  mass density, kg/m3: 1356.86
- COMPOUND: "C[N+](C)(C)CCO.O=S(=O)([N-]S(=O)(=O)C(F)(F)F)C(F)(F)F [choline bis(trifluoromethylsulfonyl)imide]"
  mass density, kg/m3: 1495.16
- COMPOUND: "CC1COC(=O)O1 (stereo not given) [4-methyl-1,3-dioxolan-2-one]"
  mass density, kg/m3: 1162.5
- COMPOUND: "CCn1cc[n+](C)c1.N#C[B-](C#N)(C#N)C#N [1-ethyl-3-methylimidazolium tetracyanoborate]"
  mass density, kg/m3: 1009.19
- COMPOUND: "CCn1cc[n+](C)c1.CS(=O)(=O)[O-] [1-ethyl-3-methylimidazolium methanesulfonate]"
  mass density, kg/m3: 1218.52

###

# PROTOCOL CONDITIONS: 363.15 K; 100 kPa; Liquid; Vibrating tube method
READOUT LABEL: mass density (kg/m3)

- MOLECULE: "CCn1cc[n+](C)c1.CS(=O)(=O)[O-] [1-ethyl-3-methylimidazolium methanesulfonate]"
  READOUT LABEL: "mass density"
  READING UNIT: "kg/m3"
  RECORDED VALUE: 1198.74
- MOLECULE: "C[N+](C)(C)CCO.O=S(=O)([N-]S(=O)(=O)C(F)(F)F)C(F)(F)F [choline bis(trifluoromethylsulfonyl)imide]"
  READOUT LABEL: "mass density"
  READING UNIT: "kg/m3"
  RECORDED VALUE: 1468.35
- MOLECULE: "CCn1cc[n+](C)c1.O=S(=O)([O-])C(F)(F)F [1-ethyl-3-methylimidazolium trifluoromethanesulfonate]"
  READOUT LABEL: "mass density"
  READING UNIT: "kg/m3"
  RECORDED VALUE: 1332.32
- MOLECULE: "CC1COC(=O)O1 (stereo not given) [4-methyl-1,3-dioxolan-2-one]"
  READOUT LABEL: "mass density"
  READING UNIT: "kg/m3"
  RECORDED VALUE: 1130.73
- MOLECULE: "CCn1cc[n+](C)c1.N#C[B-](C#N)(C#N)C#N [1-ethyl-3-methylimidazolium tetracyanoborate]"
  READOUT LABEL: "mass density"
  READING UNIT: "kg/m3"
  RECORDED VALUE: 986.83

###

# PROTOCOL CONDITIONS: 303.15 K; 100 kPa; Liquid; Vibrating tube method
READOUT LABEL: mass density (kg/m3)

- COMPOUND: "CCn1cc[n+](C)c1.N#C[B-](C#N)(C#N)C#N [1-ethyl-3-methylimidazolium tetracyanoborate]"
  READING UNIT: "kg/m3"
  mass density: 1032.31
- COMPOUND: "CCn1cc[n+](C)c1.O=S(=O)([O-])C(F)(F)F [1-ethyl-3-methylimidazolium trifluoromethanesulfonate]"
  READING UNIT: "kg/m3"
  mass density: 1381.85
- COMPOUND: "CCn1cc[n+](C)c1.CS(=O)(=O)[O-] [1-ethyl-3-methylimidazolium methanesulfonate]"
  READING UNIT: "kg/m3"
  mass density: 1238.7
- COMPOUND: "CC1COC(=O)O1 (centres undefined)"
  READING UNIT: "kg/m3"
  mass density: 1194.27

###

# PROTOCOL CONDITIONS: 343.15 K; 100 kPa; Liquid; Vibrating tube method
READOUT LABEL: mass density (kg/m3)

- COMPOUND: "CC1COC(=O)O1 (stereo not given)"
  READING UNIT: "kg/m3"
  mass density: 1151.92
- COMPOUND: "C[N+](C)(C)CCO.O=S(=O)([N-]S(=O)(=O)C(F)(F)F)C(F)(F)F [choline bis(trifluoromethylsulfonyl)imide]"
  READING UNIT: "kg/m3"
  mass density: 1486.16
- COMPOUND: "CCn1cc[n+](C)c1.O=S(=O)([O-])C(F)(F)F [1-ethyl-3-methylimidazolium trifluoromethanesulfonate]"
  READING UNIT: "kg/m3"
  mass density: 1348.64
- COMPOUND: "CCn1cc[n+](C)c1.CS(=O)(=O)[O-] [1-ethyl-3-methylimidazolium methanesulfonate]"
  READING UNIT: "kg/m3"
  mass density: 1211.87
- COMPOUND: "CCn1cc[n+](C)c1.N#C[B-](C#N)(C#N)C#N [1-ethyl-3-methylimidazolium tetracyanoborate]"
  READING UNIT: "kg/m3"
  mass density: 1001.66

###

# PROTOCOL CONDITIONS: 323.15 K; 100 kPa; Liquid; Vibrating tube method
READOUT LABEL: mass density (kg/m3)

- MOLECULE: "CCn1cc[n+](C)c1.O=S(=O)([O-])C(F)(F)F [1-ethyl-3-methylimidazolium trifluoromethanesulfonate]"
  READING UNIT: "kg/m3"
  mass density: 1365.14
- MOLECULE: "CCn1cc[n+](C)c1.N#C[B-](C#N)(C#N)C#N [1-ethyl-3-methylimidazolium tetracyanoborate]"
  READING UNIT: "kg/m3"
  mass density: 1016.81
- MOLECULE: "CC1COC(=O)O1 (stereo not given) [4-methyl-1,3-dioxolan-2-one]"
  READING UNIT: "kg/m3"
  mass density: 1173.08
- MOLECULE: "CCn1cc[n+](C)c1.CS(=O)(=O)[O-] [1-ethyl-3-methylimidazolium methanesulfonate]"
  READING UNIT: "kg/m3"
  mass density: 1225.21
- MOLECULE: "C[N+](C)(C)CCO.O=S(=O)([N-]S(=O)(=O)C(F)(F)F)C(F)(F)F [choline bis(trifluoromethylsulfonyl)imide]"
  READING UNIT: "kg/m3"
  mass density: 1504.27
